Values from ChEMBL document CHEMBL2086347

A set of compounds tested on Rhodesain (Trypanosoma brucei rhodesiense), with measured pIC50:
In plain terms, pIC50 is the concentration in mol/L turned into minus its base-10 logarithm.

C[n+]1c2ccccc2c(NC2CCN(Cc3ccccc3)CC2)c2[nH]c3ccccc3c21.[Cl-] | 5.40
C[n+]1c2ccccc2c(Nc2cccnc2)c2[nH]c3ccccc3c21.[Cl-] | 5.70

From here, focus on the item given below.
Noted for CCN(CC)CCNc1c2ccccc2[n+](C)c2c1[nH]c1ccccc12.[Cl-] : its pIC50 reads 4.96

###

Tested on: Trypanosoma brucei brucei
method: Antitrypanosomal activity against Trypanosoma brucei brucei
Type: functional, organism-based
Overview of recorded pIC50 for various compounds
In plain terms, pIC50 is the concentration in mol/L turned into minus its base-10 logarithm.

C[n+]1c2ccccc2c(Nc2ccc(N3CCCCC3)cc2)c2[nH]c3ccccc3c21.[Cl-] | 7.10
C[n+]1c2ccccc2c(Nc2cccnc2)c2[nH]c3ccccc3c21.[Cl-] | 6.52
C[n+]1c2ccccc2c(Nc2ccccc2)c2[nH]c3ccccc3c21.[Cl-] | 6.52
CN(C)CCNc1c2ccccc2[n+](C)c2c1[nH]c1ccccc12.[Cl-] | 6.15

From here, focus on the item given below.
Noted for CCN(CC)Cc1ccc(Nc2c3ccccc3[n+](C)c3c2[nH]c2ccccc23)cc1O.[Cl-] : its pIC50 reads 7.52
